- Tested on: Escherichia coli ATCC 25922
- method_description: Minimal Inhibitory Concentration (MIC) determination, broth microdilution (CLSI M07-A10)
- Format: cell-based
- experimental_conditions: Escherichia coli, ATCC25922, strain Escherichia coli ATCC 25922, 18-24 hours at 35±2° C., lowest concentration for complete growth inhibition (no visible growth), read-out: Escherichia coli growth inhibition MIC
measured_property: MIC (µg/mL)

* CN[C@H]1CN[C@H](c2nc3c(F)c4c(c(F)c3[nH]2)CC(CN2CCC3(CC2)CN(c2cnc5c(n2)NC(=O)CO5)C(=O)O3)C4)C1 | 0.25
* CN[C@H](C)c1nc2c(F)c3c(c(F)c2[nH]1)CC(CNC1CC2(C1)CN(c1cnc4c(n1)NC(=O)CO4)C(=O)O2)C3 (stereo partly drawn) | 0.5
* O=C1COc2ncc(N3CC4(CCN(CC5Cc6cc7nc(CN8CC(O)C8)oc7c(F)c6C5)CC4)OC3=O)nc2N1 (single isomer, unassigned) | 0.5
* CNC(=O)CNCc1nc2c(F)c3c(cc2[nH]1)CC(CN1CCC2(CC1)CN(c1cnc4c(n1)NC(=O)CO4)C(=O)O2)C3 (stereo not drawn) | 1
* CN1C[C@H](O)C[C@H]1c1nc2c(F)c3c(c(F)c2[nH]1)CC(CN1CCC2(CC1)CN(c1cnc4c(n1)NC(=O)CO4)C(=O)O2)C3 | 1
* O=C(O)C(F)(F)F.O=C1COc2ncc(N3CC4(CCN(CC5Cc6c(c(F)c7[nH]c([C@@H]8C[C@H](O)CN8)nc7c6F)C5)CC4)OC3=O)nc2N1 | 0.5
